B1: TPR 5TU (parent)
chain: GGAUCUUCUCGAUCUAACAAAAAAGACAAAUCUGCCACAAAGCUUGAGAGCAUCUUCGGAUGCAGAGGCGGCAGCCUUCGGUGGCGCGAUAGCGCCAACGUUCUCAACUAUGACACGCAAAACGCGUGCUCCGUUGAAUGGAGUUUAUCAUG

- Variants of: B1
- method: polymerase ribozyme fitness, log enrichment relative to wild type (log ratio); higher = more active; in vitro selection for triplet polymerase activity
Variants at the floor of the assay were thinned out.
recordedEndpoint: polymerase ribozyme fitness (log ratio)

{"mutationId": "C14A A73G G86A A98U", "polymerase ribozyme fitness (log ratio)": -3.58}
{"mutationId": "A29U A40U G68U C69U G92A G140C", "polymerase ribozyme fitness (log ratio)": "≤ -4.2"}
{"mutationId": "U6C C14G A40C A52U A91U", "polymerase ribozyme fitness (log ratio)": "≤ -4.2"}
{"mutationId": "C14G A29G U33C A37U U111G G124U U134A", "polymerase ribozyme fitness (log ratio)": "≤ -4.2"}

**Query** // returns reported polymerase ribozyme fitness (log ratio) for input G94U A147G
**Result** -1.51

**Query** // returns reported polymerase ribozyme fitness (log ratio) for input C14A U15A G50U A66G U101G C114U C118G G133A A137G
**Result** ≤ -4.2

**Query** // returns reported polymerase ribozyme fitness (log ratio) for input A28C A41U C43U G46C C85A U130G U135C
**Result** ≤ -4.2

**Query** // returns reported polymerase ribozyme fitness (log ratio) for input A12G A28C C79U U82C G86U G88A A106U C129U U148G G152U
**Result** ≤ -4.2
